The measured values listed here are drawn from patent US20250136559A1.

Measured Mouse D473H % Inh accompanies every entry in the list below.
# SUBJECT_OF_TEST: mouse SMO^D473H (Mus musculus, UniProt P56726, D477H)
# Construct: expressed in transfected cells
# Sequence (P56726 33-793 D477H): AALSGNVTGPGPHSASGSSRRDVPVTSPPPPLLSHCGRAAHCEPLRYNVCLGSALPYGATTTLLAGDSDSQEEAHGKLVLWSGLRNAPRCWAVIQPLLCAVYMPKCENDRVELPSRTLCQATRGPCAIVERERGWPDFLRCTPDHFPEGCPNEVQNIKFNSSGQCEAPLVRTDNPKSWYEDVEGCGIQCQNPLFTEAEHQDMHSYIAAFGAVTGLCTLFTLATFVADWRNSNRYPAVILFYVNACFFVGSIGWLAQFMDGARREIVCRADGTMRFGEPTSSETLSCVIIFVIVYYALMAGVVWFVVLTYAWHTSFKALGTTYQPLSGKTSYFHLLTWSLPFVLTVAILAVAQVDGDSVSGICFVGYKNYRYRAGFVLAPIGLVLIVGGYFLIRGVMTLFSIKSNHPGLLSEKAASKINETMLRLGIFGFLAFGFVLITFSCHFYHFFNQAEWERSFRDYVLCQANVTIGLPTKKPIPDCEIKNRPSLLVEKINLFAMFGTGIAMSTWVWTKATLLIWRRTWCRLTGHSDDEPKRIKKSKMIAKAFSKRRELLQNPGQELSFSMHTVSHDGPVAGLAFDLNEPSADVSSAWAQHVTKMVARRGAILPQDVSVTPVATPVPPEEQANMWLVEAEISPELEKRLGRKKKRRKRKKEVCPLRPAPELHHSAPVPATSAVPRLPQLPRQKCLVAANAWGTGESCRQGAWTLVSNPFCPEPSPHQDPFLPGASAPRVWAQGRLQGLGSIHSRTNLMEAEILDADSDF
# RUN_DESCRIPTION: Mouse assay: Gli1 qPCR in MEF cells stably expressing mouse SMO D473H; note: test concentration or dose not given here
# Format: cell-based
# ASSAY_CONDITIONS: mSHh-treated, 24 hours, percentage Gli1 inhibition

# SMILES_DATA, SUBJECT_OF_TEST, RESULT_UNIT, Mouse D473H % Inh
rows = [
    ("O=C(Nc1ccc(-c2nc(Cc3cc(Cl)ccc3Cl)n[nH]2)cc1)c1cccc(CN2CCS(=O)(=O)CC2)c1", "mouse SMO^D473H (Mus musculus, UniProt P56726, D477H)", "%", 87.1),
    ("Cl.O=C(Nc1ccc(-c2nnc(C3CC3)o2)cc1)c1cccc(CN2CCS(=O)(=O)CC2)c1", "mouse SMO^D473H (Mus musculus, UniProt P56726, D477H)", "%", 94.9),
    ("O=C(Nc1ccc(-c2nc(-c3ccc(COc4ccccc4F)cc3)n[nH]2)cc1)c1cccc(CN2CCS(=O)(=O)CC2)c1", "mouse SMO^D473H (Mus musculus, UniProt P56726, D477H)", "%", 95.2),
    ("Cl.Cn1nc(-c2ccc(NC(=O)c3cccc(CN4CCS(=O)(=O)CC4)c3)cc2)nc1C1CC1", "mouse SMO^D473H (Mus musculus, UniProt P56726, D477H)", "%", 98.5),
    ("O=C(Nc1ccc(-c2noc(Cc3ccccc3)n2)cc1)c1cccc(CN2CCS(=O)(=O)CC2)c1", "mouse SMO^D473H (Mus musculus, UniProt P56726, D477H)", "%", 99.4),
    ("Cl.O=C(Nc1ccc(-c2noc(C3CC3)n2)cc1)c1cccc(CN2CCS(=O)(=O)CC2)c1", "mouse SMO^D473H (Mus musculus, UniProt P56726, D477H)", "%", 99.8),
    ("O=C(Nc1ccc(-c2nc(Cc3cc4c(cc3Cl)OCO4)n[nH]2)cc1)c1cccc(CN2CCS(=O)(=O)CC2)c1", "mouse SMO^D473H (Mus musculus, UniProt P56726, D477H)", "%", 98.9),
]

----------
Measured IC50 accompanies every entry in the list below.
# SUBJECT_OF_TEST: human SMO D473H (Homo sapiens, UniProt Q99835, D473H)
# Construct: expressed in transfected cells; host or cells: SMO knock-out mouse embryonic fibroblasts (MEF SMO-/-), BacMam transduction
# Sequence (Q99835 28-787 D473H): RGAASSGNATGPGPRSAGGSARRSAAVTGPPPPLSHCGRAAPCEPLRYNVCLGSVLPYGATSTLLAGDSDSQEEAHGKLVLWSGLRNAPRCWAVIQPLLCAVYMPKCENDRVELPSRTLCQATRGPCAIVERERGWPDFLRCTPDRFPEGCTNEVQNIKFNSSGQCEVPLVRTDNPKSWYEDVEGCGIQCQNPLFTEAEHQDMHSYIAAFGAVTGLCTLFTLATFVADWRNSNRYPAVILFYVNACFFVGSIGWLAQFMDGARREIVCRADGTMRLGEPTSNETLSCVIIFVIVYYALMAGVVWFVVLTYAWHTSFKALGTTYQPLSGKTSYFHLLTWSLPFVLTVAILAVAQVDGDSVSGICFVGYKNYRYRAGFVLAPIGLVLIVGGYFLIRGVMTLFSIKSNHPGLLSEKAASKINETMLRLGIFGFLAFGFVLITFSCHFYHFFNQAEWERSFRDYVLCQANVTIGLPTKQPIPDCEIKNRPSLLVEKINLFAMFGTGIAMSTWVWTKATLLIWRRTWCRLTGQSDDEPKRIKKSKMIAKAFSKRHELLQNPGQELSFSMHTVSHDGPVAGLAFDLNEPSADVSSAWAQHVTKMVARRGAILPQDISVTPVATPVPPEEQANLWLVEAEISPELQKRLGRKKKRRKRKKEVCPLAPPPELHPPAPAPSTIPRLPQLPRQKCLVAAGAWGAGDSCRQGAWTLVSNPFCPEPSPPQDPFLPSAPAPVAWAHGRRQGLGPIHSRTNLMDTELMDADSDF
# RUN_DESCRIPTION: Human assay: Gli1 qPCR in MEF SMO-/- cells BacMam-transduced with hSMO D473H variant
# Format: cell-based
# ASSAY_CONDITIONS: mSHh-treated, 24 hours, Gli1 inhibition by qPCR, read-out: Human D473H pIC50 (converted)

# SMILES_DATA, SUBJECT_OF_TEST, RESULT_UNIT, IC50
measured = [
    ("O=C(Nc1ccc(-c2noc(Cc3ccc(F)cc3)n2)cc1)c1cccc(CN2CCS(=O)(=O)CC2)c1", "human SMO D473H (Homo sapiens, UniProt Q99835, D473H)", "nM", 39.8),
    ("O=C(Nc1ccc(-c2nc(Cc3ccc(Br)cc3)n[nH]2)cc1)c1cccc(CN2CCS(=O)(=O)CC2)c1", "human SMO D473H (Homo sapiens, UniProt Q99835, D473H)", "nM", 25.1),
    ("Cc1c(-c2ccc(NC(=O)c3ccc(Cl)c(CN4CCS(=O)(=O)CC4)c3)cc2)nn(C)c1C1CC1", "human SMO D473H (Homo sapiens, UniProt Q99835, D473H)", "nM", 63.1),
]
